// provenance: ChEMBL document CHEMBL5291721

system_name: UniProt P18089
Sequence (P18089 whole entry): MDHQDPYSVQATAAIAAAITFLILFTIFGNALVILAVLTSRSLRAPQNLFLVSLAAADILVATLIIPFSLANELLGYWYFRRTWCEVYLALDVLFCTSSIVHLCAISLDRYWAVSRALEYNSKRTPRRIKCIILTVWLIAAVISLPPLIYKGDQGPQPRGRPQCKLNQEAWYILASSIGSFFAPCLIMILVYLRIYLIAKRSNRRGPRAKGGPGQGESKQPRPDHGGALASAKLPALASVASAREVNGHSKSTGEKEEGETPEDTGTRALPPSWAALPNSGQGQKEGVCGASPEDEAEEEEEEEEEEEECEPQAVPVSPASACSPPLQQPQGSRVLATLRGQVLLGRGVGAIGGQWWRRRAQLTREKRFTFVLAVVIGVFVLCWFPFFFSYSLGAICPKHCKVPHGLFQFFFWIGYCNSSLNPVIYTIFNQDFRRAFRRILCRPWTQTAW
Where a SMILES comes first, the peptide text is derived from it. [ ]: non-standard residue; d: D form. pGlu = O=C1CC[C@@H](C(=O)O)N1; Thz = O=C(O)[C@@H]1CSCN1
AC50 by entry:

[
  {
    "molecule": "COc1ccc(CN2CCN(C(c3ccc(F)cc3)c3ccc(F)cc3)CC2)c(OC)c1OC",
    "AC50": "19 µM"
  },
  {
    "molecule": "CC(C(=O)O)c1ccc2c(c1)CC(=O)c1ccccc1S2 (centres undefined)",
    "AC50": "> 30 µM"
  },
  {
    "molecule": "CCOC(=O)c1c(CSc2ccccc2)n(C)c2cc(Br)c(O)c(CN(C)C)c12",
    "AC50": "26 µM"
  },
  {
    "molecule": "CCOC(=O)c1ccc(C#Cc2ccc3c(c2)C(C)(C)CCS3)nc1",
    "AC50": "> 10 µM"
  },
  {
    "molecule": "CN(C)Cc1nnc2n1-c1ccc(Cl)cc1C(c1ccccc1)=NC2",
    "AC50": "> 10 µM"
  }
]

## Input For CC1(C)S[C@@H]2[C@H](NC(=O)C(C(=O)O)c3ccccc3)C(=O)N2[C@H]1C(=O)O (some centres undefined) , what is its reported AC50?
## Output > 30 µM

## Input For O=S1(=O)CCN(CN2CCS(=O)(=O)NC2)CN1 , what is its reported AC50?
## Output 20 µM

## Input For C[C@]12C=CC(=O)C=C1CC[C@@H]1[C@@H]2CC[C@]2(C)OC(=O)CC[C@@H]12 , what is its reported AC50?
## Output > 10 µM

## Input For CC(CN(C)C)C(C)(O)Cc1ccc(Cl)cc1 (centres undefined) , what is its reported AC50?
## Output > 10 µM

## Input For Oc1cc(O)c(Cl)cn1 , what is its reported AC50?
## Output > 30 µM

## Input For Clc1ccc(CCC(Cn2ccnc2)Sc2c(Cl)cccc2Cl)cc1 (centres undefined) , what is its reported AC50?
## Output 19 µM

## Input For CCC(=O)O[C@](Cc1ccccc1)(c1ccccc1)[C@H](C)CN(C)C , what is its reported AC50?
## Output > 10 µM

## Input For Cc1nc(Nc2ncc(C(=O)Nc3c(C)cccc3Cl)s2)cc(N2CCN(CCO)CC2)n1 , what is its reported AC50?
## Output > 30 µM

## Input For O=C(NCCO[N+](=O)[O-])c1cccnc1 , what is its reported AC50?
## Output > 30 µM

## Input For CCCCCCCN(CC)CCCC(O)c1ccc(NS(C)(=O)=O)cc1 (centres undefined) [IBUTILIDE] , what is its reported AC50?
## Output 18 µM

## Input For CCCc1nc2c(C)cc(-c3nc4ccccc4n3C)cc2n1Cc1ccc(-c2ccccc2C(=O)O)cc1 , what is its reported AC50?
## Output > 30 µM

## Input For C[N+](C)(C)CCOP(=O)(O)OP(=O)([O-])OC[C@H]1O[C@@H](n2ccc(N)nc2=O)[C@H](O)[C@@H]1O , what is its reported AC50?
## Output > 30 µM

## Input For CC(C)NC(=N)NC(=N)Nc1ccc(Cl)c(Cl)c1 , what is its reported AC50?
## Output 10 µM

## Input For O=C1CC[C@@H](C(=O)N2CSC[C@H]2C(=O)O)N1 [PIDOTIMOD] ([pGlu]-[Thz]-OH) , what is its reported AC50?
## Output > 30 µM

----------
system_name: Amine oxidase [flavin-containing] A (Homo sapiens, UniProt P21397); further: assay procedure not described here
Sequence (P21397 whole entry): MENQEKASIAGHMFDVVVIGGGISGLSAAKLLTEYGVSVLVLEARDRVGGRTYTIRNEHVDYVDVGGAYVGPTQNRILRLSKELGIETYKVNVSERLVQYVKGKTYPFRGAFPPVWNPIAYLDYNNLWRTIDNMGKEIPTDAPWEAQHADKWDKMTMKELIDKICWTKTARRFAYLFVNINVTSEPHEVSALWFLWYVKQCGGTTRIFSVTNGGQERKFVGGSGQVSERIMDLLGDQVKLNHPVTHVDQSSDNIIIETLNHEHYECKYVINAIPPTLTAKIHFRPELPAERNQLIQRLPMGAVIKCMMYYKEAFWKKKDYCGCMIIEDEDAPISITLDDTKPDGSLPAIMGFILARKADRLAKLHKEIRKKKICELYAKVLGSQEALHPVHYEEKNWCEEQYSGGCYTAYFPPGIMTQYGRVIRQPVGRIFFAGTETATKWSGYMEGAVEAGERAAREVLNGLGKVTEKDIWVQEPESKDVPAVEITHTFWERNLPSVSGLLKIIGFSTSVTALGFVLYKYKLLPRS
Type: functional
AC50 by entry:

Use the examples below as a reference point.
[
  {
    "molecule": "O=C1c2cccc3c2[C@H](CCC3)CN1[C@@H]1CN2CCC1CC2 [PALONOSETRON]",
    "AC50": "> 30 µM"
  },
  {
    "molecule": "CC(=O)c1ccc(S(=O)(=O)NC(=O)NC2CCCCC2)cc1 [ACETOHEXAMIDE]",
    "AC50": "> 10 µM"
  },
  {
    "molecule": "O=C(O)Cc1ccccc1Oc1ccc(Cl)cc1Cl [FENCLOFENAC]",
    "AC50": "> 10 µM"
  },
  {
    "molecule": "O=S1(=O)CCN(CN2CCS(=O)(=O)NC2)CN1 [TAUROLIDINE]",
    "AC50": "> 30 µM"
  },
  {
    "molecule": "CCC1(CCC(C)C)C(=O)NC(=O)NC1=O [AMOBARBITAL]",
    "AC50": "> 10 µM"
  },
  {
    "molecule": "COc1ccc([C@@H]2CC(=O)c3c(O)cc(O)cc3O2)cc1O [HESPERETIN]",
    "AC50": "> 10 µM"
  },
  {
    "molecule": "Cc1cccc(C)c1NC(=O)CC12CCCN1CCC2 [PILSICAINIDE]",
    "AC50": "> 30 µM"
  },
  {
    "molecule": "CC(C)(C)NCC(O)c1ccccc1Cl (centres undefined) [TULOBUTEROL]",
    "AC50": "> 30 µM"
  }
]

## Input For C[C@@H]1C[C@H]2[C@@H]3C[C@H](F)C4=CC(=O)C=C[C@]4(C)[C@@]3(F)[C@@H](O)C[C@]2(C)[C@@]1(OC(=O)c1ccco1)C(=O)SCF [FLUTICASONE FUROATE] , what is its reported AC50?
## Output > 10 µM

----------
system_name: Histamine H2 receptor (Homo sapiens, UniProt P25021); further: assay procedure not described here
Sequence (P25021 whole entry): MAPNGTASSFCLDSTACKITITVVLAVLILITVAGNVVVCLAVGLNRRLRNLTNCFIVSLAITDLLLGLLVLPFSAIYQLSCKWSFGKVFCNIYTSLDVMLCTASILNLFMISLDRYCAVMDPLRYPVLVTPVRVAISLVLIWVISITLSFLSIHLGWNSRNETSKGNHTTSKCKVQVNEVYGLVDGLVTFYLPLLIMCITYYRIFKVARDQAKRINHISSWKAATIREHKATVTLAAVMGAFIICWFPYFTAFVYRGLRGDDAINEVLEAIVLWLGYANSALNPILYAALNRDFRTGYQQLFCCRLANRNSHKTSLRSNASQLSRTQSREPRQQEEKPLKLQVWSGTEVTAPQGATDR
Assay type: functional, cell-based
endpoint_label: AC50

Use the examples below as a reference point.
[
  {
    "compound": "Clc1ccc(CCC(Cn2ccnc2)Sc2c(Cl)cccc2Cl)cc1 (centres undefined)",
    "AC50": "> 30 µM"
  },
  {
    "compound": "O=S1(=O)CCN(CN2CCS(=O)(=O)NC2)CN1",
    "AC50": "> 30 µM"
  },
  {
    "compound": "COc1cc(C(=O)NS(=O)(=O)c2ccccc2C)ccc1Cc1cn(C)c2ccc(NC(=O)OC3CCCC3)cc12",
    "AC50": "> 10 µM"
  }
]

Then there is this compound:
## Input Report AC50 for CO/N=C(\C(=O)N[C@@H]1C(=O)N2C(C(=O)O)=C(CSc3nc(=O)c(=O)[nH]n3C)CS[C@H]12)c1csc(N)n1 tested on Histamine H2 receptor (Homo sapiens, UniProt P25021). Further: assay procedure not described here.
## Output > 30 µM

----------
AC50 values recorded for Motilin receptor (Homo sapiens, UniProt O43193)

Use the examples below as a reference point.
[
  {
    "molecule": "COc1cc(C)c(/C=C/C(C)=C/C=C/C(C)=C/C(=O)O)c(C)c1C",
    "system_name": "Motilin receptor (Homo sapiens, UniProt O43193)",
    "AC50": "> 10 µM"
  },
  {
    "molecule": "Clc1ccc(CCC(Cn2ccnc2)Sc2c(Cl)cccc2Cl)cc1 (centres undefined)",
    "system_name": "Motilin receptor (Homo sapiens, UniProt O43193)",
    "AC50": "> 30 µM"
  },
  {
    "molecule": "CC(=O)Nc1ccc(CC(=O)O)cc1",
    "system_name": "Motilin receptor (Homo sapiens, UniProt O43193)",
    "AC50": "> 30 µM"
  },
  {
    "molecule": "O=C(CCCN1CCC(O)(c2ccc(Br)cc2)CC1)c1ccc(F)cc1",
    "system_name": "Motilin receptor (Homo sapiens, UniProt O43193)",
    "AC50": "> 30 µM"
  },
  {
    "molecule": "CN[C@@H](C)[C@@H](O)c1ccccc1",
    "system_name": "Motilin receptor (Homo sapiens, UniProt O43193)",
    "AC50": "> 10 µM"
  },
  {
    "molecule": "CCOC(=O)c1ncn2c1CN(C)C(=O)c1cc(F)ccc1-2",
    "system_name": "Motilin receptor (Homo sapiens, UniProt O43193)",
    "AC50": "> 30 µM"
  },
  {
    "molecule": "Cc1ccccc1N1C(=O)c2cc(S(N)(=O)=O)c(Cl)cc2NC1C (centres undefined)",
    "system_name": "Motilin receptor (Homo sapiens, UniProt O43193)",
    "AC50": "> 10 µM"
  },
  {
    "molecule": "CN(C)CCCN1c2ccccc2CCc2ccccc21",
    "system_name": "Motilin receptor (Homo sapiens, UniProt O43193)",
    "AC50": "> 10 µM"
  },
  {
    "molecule": "COc1cc2[nH]c(C)c(CCN3CCN(c4ccccc4)CC3)c2cc1OC",
    "system_name": "Motilin receptor (Homo sapiens, UniProt O43193)",
    "AC50": "> 30 µM"
  },
  {
    "molecule": "CCCNC(=O)NS(=O)(=O)c1ccc(Cl)cc1 [CHLORPROPAMIDE]",
    "system_name": "Motilin receptor (Homo sapiens, UniProt O43193)",
    "AC50": "> 10 µM"
  }
]

## Input For COc1cc(N)c(Cl)cc1C(=O)NC1CCN(CCCOc2ccc(F)cc2)CC1OC (centres undefined) [CISAPRIDE] , what is its reported AC50?
## Output 1.8 µM

## Input For CC[C@H](C)C(=O)O[C@H]1C[C@@H](C)C=C2C=C[C@H](C)[C@H](CC[C@@H]3C[C@@H](O)CC(=O)O3)[C@H]21 , what is its reported AC50?
## Output > 10 µM

## Input For CC1=C(C(=O)OC(C)C)C(c2cccc([N+](=O)[O-])c2)C(C(=O)OC2CN(C(c3ccccc3)c3ccccc3)C2)=C(N)N1 (centres undefined) , what is its reported AC50?
## Output 16 µM

## Input For C[N+](C)(C)CCOP(=O)([O-])OC[C@H](O)CO , what is its reported AC50?
## Output > 30 µM

## Input For Cc1cc(=O)n(-c2ccccc2)n1C [ANTIPYRINE] , what is its reported AC50?
## Output > 10 µM

## Input For CC(c1cc2ccccc2s1)N(O)C(N)=O (centres undefined) , what is its reported AC50?
## Output > 10 µM

## Input For NNC(=O)c1ccncc1 , what is its reported AC50?
## Output > 30 µM

## Input For COC(=O)[C@H]1[C@H]2C[C@@H]3c4[nH]c5cc(OC)ccc5c4CCN3C[C@H]2C[C@@H](OC(=O)c2cc(OC)c(OC)c(OC)c2)[C@@H]1OC , what is its reported AC50?
## Output > 10 µM

## Input For CNC(=C[N+](=O)[O-])NCCSCc1csc(CN(C)C)n1 , what is its reported AC50?
## Output > 10 µM
